system: EKVX NSCLC; assay: NCI-60 one-dose screen, 48 h; conditions: 10 µM
This is part of a sample that, as a whole, favours compounds with a hit. Of some 83,000 tested, about 20% had one in any assay. Activity calls are given as the source filed them. Rule for the calls: active = growth percent below 10; inactive = the rest.
One label from this list, please: 1.0 (active), 0.0 (inactive)

>>> category_label("Cc1cc(C(O)(c2ccc(Nc3ccccc3)cc2)c2ccc(Nc3ccc(S(=O)(=O)O)cc3)cc2)ccc1N (stereo not drawn)")
1.0
>>> category_label("COCCOCCCl")
0.0
>>> category_label("COc1cc2nc3cc([N+](=O)[O-])ccc3c(Cl)c2cc1OC")
0.0
>>> category_label("CC1CC(O)CC(C)(C)C1 (stereo not drawn)")
0.0
>>> category_label("COc1cccc(O)c1O")
0.0

Req: Lab log entry: CN(c1ccccc1)c1ncnc2c1ncn2C — outcome as called in the assay?
Resp: 0.0

Req: Record: O=c1[nH][nH]c(=O)c2cc([N+](=O)[O-])ccc12
Resp: 0.0

Req: What about COc1cc(C(=O)NC(=S)Nc2ccc3ccccc3c2)cc(OC)c1OC ?
Resp: 0.0

Req: Continue with N/N=C(/Cc1ccccc1)NNC(N)=S
Resp: 0.0

Req: Now the compound CCc1nc(N)nc(N)c1-c1ccc(Cl)cc1
Resp: 0.0

Req: Entry to check: Cc1cc(=O)[nH]c(NN=C2CCCC2)n1
Resp: 0.0

Req: Consider next the compound CC(C)C1CCCCC1O (stereo not drawn) in the same way.
Resp: 0.0

Req: Same thing, different compound: O=[N+]([O-])c1ccc(O)c(S(=O)(=O)O)c1
Resp: 0.0
